- targetOfAssay: dopaminergic D2 receptor (Homo sapiens)
- Sequence (P14416 whole entry): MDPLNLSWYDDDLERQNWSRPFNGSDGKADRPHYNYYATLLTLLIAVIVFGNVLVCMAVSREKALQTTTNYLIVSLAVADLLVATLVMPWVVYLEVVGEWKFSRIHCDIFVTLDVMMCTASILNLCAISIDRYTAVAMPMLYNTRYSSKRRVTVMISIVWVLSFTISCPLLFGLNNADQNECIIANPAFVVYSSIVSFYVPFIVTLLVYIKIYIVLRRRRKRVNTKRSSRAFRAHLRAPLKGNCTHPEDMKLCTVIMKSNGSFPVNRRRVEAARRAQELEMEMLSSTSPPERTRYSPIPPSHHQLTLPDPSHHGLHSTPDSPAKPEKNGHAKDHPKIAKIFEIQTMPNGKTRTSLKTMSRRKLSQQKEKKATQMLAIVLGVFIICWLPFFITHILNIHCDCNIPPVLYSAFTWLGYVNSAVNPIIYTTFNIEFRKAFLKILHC
- experiment: Cellular functional assay, dopaminergic D2 receptor (agonism/antagonism)
- Format: cell-based
- particulars: HEK293; read-out: D2-antag. [%]

| compound | targetOfAssay | inhibition at 1 µM / % |
| --- | --- | --- |
| O=c1[nH]c2cccc(N3CCN(CCCNS(=O)(=O)c4cccc5ccccc45)CC3)c2[nH]1 [Compound 423] | dopaminergic D2 receptor (Homo sapiens) | 96 |
| O=S(=O)(NCCCCN1CCC(c2noc3cc(F)ccc23)CC1)c1cc2ccccc2s1 [Compound 312] | dopaminergic D2 receptor (Homo sapiens) | 90 |
| O=S(=O)(NCCCCN1CCN(c2cccc3[nH]ccc23)CC1)c1csc2ccccc12 [Compound 32] | dopaminergic D2 receptor (Homo sapiens) | 89 |
| O=S(=O)(NCCCCN1CCN(c2cccc3[nH]ccc23)CC1)c1cccc(F)c1 [Compound 28] | dopaminergic D2 receptor (Homo sapiens) | 105 |
| O=S(=O)(NCCCCN1CCN(c2noc3ccccc23)CC1)c1ccc2ccccc2c1 [Compound 14] | dopaminergic D2 receptor (Homo sapiens) | 98 |
| O=S(=O)(NCCCN1CCC(c2noc3cc(F)ccc23)CC1)c1ccc(F)c(Cl)c1 [Compound 331] | dopaminergic D2 receptor (Homo sapiens) | 87 |
| O=S(=O)(NCCCCN1CCN(c2nsc3ccccc23)CC1)c1cc2ccc(Cl)cc2s1 [Compound 241] | dopaminergic D2 receptor (Homo sapiens) | 82 |
| O=S(=O)(NCCCCN1CCC(c2noc3cc(F)ccc23)CC1)c1cc2ccc(Cl)cc2s1 [Compound 314] | dopaminergic D2 receptor (Homo sapiens) | 86 |
